Kindly supply the reported IC50 values for the records listed here.
target_desc: CLK4 (Homo sapiens (Human), UniProt Q9HAZ1)
Sequence (Q9HAZ1 whole entry): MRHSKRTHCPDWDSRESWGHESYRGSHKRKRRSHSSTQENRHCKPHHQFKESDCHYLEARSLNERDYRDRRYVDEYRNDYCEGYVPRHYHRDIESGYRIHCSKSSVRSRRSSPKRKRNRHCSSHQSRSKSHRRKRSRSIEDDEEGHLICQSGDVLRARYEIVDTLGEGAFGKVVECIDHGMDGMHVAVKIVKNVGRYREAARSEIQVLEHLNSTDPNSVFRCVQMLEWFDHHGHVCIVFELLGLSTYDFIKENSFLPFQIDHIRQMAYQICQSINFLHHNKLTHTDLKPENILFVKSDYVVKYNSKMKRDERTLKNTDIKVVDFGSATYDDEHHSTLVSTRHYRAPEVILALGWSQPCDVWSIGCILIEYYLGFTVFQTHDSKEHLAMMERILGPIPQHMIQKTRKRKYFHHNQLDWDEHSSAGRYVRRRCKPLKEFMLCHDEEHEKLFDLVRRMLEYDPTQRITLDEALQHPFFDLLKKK
Kindly provide the numeric value in nM only, without the unit symbol.

Let me know recorded IC50 for CC(C)Oc1nn(CCO)c2c1/C=C/c1n[nH]c3ccc(cc13)-c1cnn(C)c1OC(CF)CN(C)C2 (centres unmarked) , thanks.
1.92

Let me know recorded IC50 for `Cc1onc2c1/C=C/c1n[nH]c3ccc(cc13)-c1cnn(C)c1OCCOC2` , thanks.
0.155

Let me know recorded IC50 for `CCOc1nn(CCO)c2c1/C=C/c1n[nH]c3ccc(cc13)-c1cnn(C)c1O[C@@H](C)CN(C)C2` , thanks.
0.33

Let me know recorded IC50 for `C[C@H]1CN(C)Cc2c(c(C#N)nn2C)/C=C/c2n[nH]c3ccc(cc23)-c2cnn(C)c2O1` , thanks.
0.38

Let me know recorded IC50 for `Cc1noc2c1/C=C/c1n[nH]c3ccc(cc13)-c1cnn(C)c1O[C@@H](C)CN(C)C2` , thanks.
0.13

Let me know recorded IC50 for `Cn1nc(C#N)c2c1COCCOc1c(cnn1C)-c1ccc3[nH]nc(c3c1)/C=C/2` , thanks.
1.33

Let me know recorded IC50 for `Cc1c2c(nn1C)/C=C/c1n[nH]c3ccc(cc13)-c1cnn(C)c1O[C@@H](C)CN(C(C)C)C2` , thanks.
0.89

Let me know recorded IC50 for `C[C@H]1CN(C)Cc2c(c(OCC#N)nn2CCO)/C=C/c2n[nH]c3ccc(cc23)-c2cnn(C)c2O1` , thanks.
1.59

Let me know recorded IC50 for `CCc1nn(C)c2c1/C=C/c1n[nH]c3ccc(cc13)-c1cnn(C)c1OCCOC2` , thanks.
0.225

Let me know recorded IC50 for `CCN1Cc2c(c(OC(C)C)nn2CC(C)=O)/C=C/c2n[nH]c3ccc(cc23)-c2cnn(C)c2O[C@@H](C)C1` , thanks.
1.31

Let me know recorded IC50 for `CCOc1nn([C@@H](C)CO)c2c1/C=C/c1n[nH]c3cc(F)c(cc13)-c1cnn(C)c1O[C@@H](C)CN(CC)C2` , thanks.
9.08

Let me know recorded IC50 for `C[C@H]1CN(C)Cc2c(c(C#N)nn2CCO)/C=C/c2n[nH]c3ccc(cc23)-c2cnn(C)c2O1` , thanks.
1.53

Let me know recorded IC50 for `CCOc1nn(CCO)c2c1/C=C/c1n[nH]c3ccc(cc13)-c1cnn(C)c1O[C@H](C)CNC2` , thanks.
1.59

Let me know recorded IC50 for `CCN1Cc2nn(C)c(C)c2/C=C/c2n[nH]c3ccc(cc23)-c2cnn(C)c2O[C@@H](C)C1` , thanks.
2.03

Let me know recorded IC50 for `CC(C)Oc1nn(CCO)c2c1/C=C/c1n[nH]c3ccc(cc13)-c1cnn(C)c1O[C@@H](C#N)CN(C)C2` , thanks.
1.59

Let me know recorded IC50 for `CCOc1nn([C@@H](C)CO)c2c1/C=C/c1n[nH]c3cc(F)c(cc13)-c1cnn(C)c1OC[C@H](C)N(C(C)C)C2` , thanks.
34

Let me know recorded IC50 for `CC(C)Oc1nn(CCO)c2c1/C=C/c1n[nH]c3cc(F)c(cc13)-c1cnn(C)c1O[C@@H]1CCCN(C2)C1` , thanks.
1.79

---

target_desc: EGFR Δ746-750/C797S mutant (Homo sapiens (Human), UniProt P00533, C797S/DEL746-750)
Sequence (P00533 other isoform, or with tags, fused parts or gaps C797S/del 1-668/del 746-750 limits assumed): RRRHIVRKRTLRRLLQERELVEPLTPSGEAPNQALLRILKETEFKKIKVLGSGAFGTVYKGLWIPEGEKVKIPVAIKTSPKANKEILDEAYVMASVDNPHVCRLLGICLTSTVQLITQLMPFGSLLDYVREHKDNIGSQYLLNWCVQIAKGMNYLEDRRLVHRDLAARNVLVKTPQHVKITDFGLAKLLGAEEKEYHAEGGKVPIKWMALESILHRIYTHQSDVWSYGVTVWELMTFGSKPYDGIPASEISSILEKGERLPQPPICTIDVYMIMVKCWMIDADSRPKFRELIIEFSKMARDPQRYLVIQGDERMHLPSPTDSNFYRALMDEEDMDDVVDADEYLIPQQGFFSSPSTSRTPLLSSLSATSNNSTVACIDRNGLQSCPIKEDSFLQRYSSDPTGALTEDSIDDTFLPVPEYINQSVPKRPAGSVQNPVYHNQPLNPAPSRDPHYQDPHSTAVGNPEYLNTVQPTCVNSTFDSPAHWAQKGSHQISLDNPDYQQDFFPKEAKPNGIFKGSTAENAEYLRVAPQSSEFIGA
protocol_details: HotSpot radiometric kinase assay, EGFR Δ746-750/C797S mutant
Type: biochemical
assay_setup: 10 μM ATP
Kindly supply the reported IC50 values for the records listed here.
Kindly provide the numeric value in nM only, without the unit symbol.

// fetch IC50 for `CC(C)Oc1nn(CCO)c2c1/C=C/c1n[nH]c3ccc(cc13)-c1cnn(C3CC3)c1O[C@@H](C)CN(C)C2` ; system: EGFR Δ746-750/C797S mutant (Homo sapiens (Human), UniProt P00533, C797S/DEL746-750)
3.18

// fetch IC50 for `Cc1onc2c1/C=C/c1n[nH]c3ccc(cc13)-c1cnn(C)c1O[C@@H](C)CN(C)C2` ; system: EGFR Δ746-750/C797S mutant (Homo sapiens (Human), UniProt P00533, C797S/DEL746-750)
90.8

// fetch IC50 for `CC(C)Oc1nn(CCO)c2c1/C=C/c1n[nH]c3cc(F)c(cc13)-c1cnn(C)c1O[C@@H]1CCCN(C2)C1` ; system: EGFR Δ746-750/C797S mutant (Homo sapiens (Human), UniProt P00533, C797S/DEL746-750)
42.5

// fetch IC50 for CN1CCN(c2ccc3c(c2)OC2CCN(CCOc4c(cnn4C)-c4ccc5[nH]nc(c5c4)/C=C/3)C2=O)CC1 (stereo in doubt) ; system: EGFR Δ746-750/C797S mutant (Homo sapiens (Human), UniProt P00533, C797S/DEL746-750)
4.09

---

target_desc: EGFR Δ746-750/C797S mutant (Homo sapiens (Human), UniProt P00533, C797S/DEL746-750)
protocol_details: HotSpot radiometric kinase assay, EGFR Δ746-750/C797S mutant
assay_setup: 10 μM ATP
result_type: log10 IC50 (log10 of the value in µM)
Form field - Quantity: IC50; Unit: µM; Scale: log10

Let me know recorded log10 IC50 for `Cc1c2c(nn1[C@H]1C[C@@H](N(C)CCN(C)C)C1)OCCCOc1c(cnn1C)-c1ccc3[nH]nc(c3c1)/C=C/2` , thanks.
-1.35

Let me know recorded log10 IC50 for `Cc1nn(C)c2c1/C=C/c1n[nH]c3ccc(cc13)-c1cnn(C)c1O[C@@H](C)CCO2` , thanks.
-1.00

Let me know recorded log10 IC50 for `Cc1c2c(nn1CCN1CCCC1)CN(C)C[C@@H](C)Oc1c(cnn1C)-c1ccc3[nH]nc(c3c1)/C=C/2` , thanks.
-1.38

Let me know recorded log10 IC50 for CC(C)Oc1nn(CCO)c2c1/C=C/c1n[nH]c3cc(F)c(cc13)-c1cnn(C)c1O[C@H](C)[C@H]1CCCN1C2 (single isomer, unassigned) , thanks.
-2.70

Let me know recorded log10 IC50 for Cc1c2c(nn1CCC(C)O)CN(C)C[C@H](C)Oc1c(cnn1C)-c1ccc3[nH]nc(c3c1)/C=C/2 (stereo partly drawn) , thanks.
-1.64

---

target_desc: EGFR L858R/T790M/C797S mutant (Homo sapiens (Human), UniProt P00533, C797S/L858R/T790M)
Sequence (P00533 25-1210 T790M/C797S/L858R): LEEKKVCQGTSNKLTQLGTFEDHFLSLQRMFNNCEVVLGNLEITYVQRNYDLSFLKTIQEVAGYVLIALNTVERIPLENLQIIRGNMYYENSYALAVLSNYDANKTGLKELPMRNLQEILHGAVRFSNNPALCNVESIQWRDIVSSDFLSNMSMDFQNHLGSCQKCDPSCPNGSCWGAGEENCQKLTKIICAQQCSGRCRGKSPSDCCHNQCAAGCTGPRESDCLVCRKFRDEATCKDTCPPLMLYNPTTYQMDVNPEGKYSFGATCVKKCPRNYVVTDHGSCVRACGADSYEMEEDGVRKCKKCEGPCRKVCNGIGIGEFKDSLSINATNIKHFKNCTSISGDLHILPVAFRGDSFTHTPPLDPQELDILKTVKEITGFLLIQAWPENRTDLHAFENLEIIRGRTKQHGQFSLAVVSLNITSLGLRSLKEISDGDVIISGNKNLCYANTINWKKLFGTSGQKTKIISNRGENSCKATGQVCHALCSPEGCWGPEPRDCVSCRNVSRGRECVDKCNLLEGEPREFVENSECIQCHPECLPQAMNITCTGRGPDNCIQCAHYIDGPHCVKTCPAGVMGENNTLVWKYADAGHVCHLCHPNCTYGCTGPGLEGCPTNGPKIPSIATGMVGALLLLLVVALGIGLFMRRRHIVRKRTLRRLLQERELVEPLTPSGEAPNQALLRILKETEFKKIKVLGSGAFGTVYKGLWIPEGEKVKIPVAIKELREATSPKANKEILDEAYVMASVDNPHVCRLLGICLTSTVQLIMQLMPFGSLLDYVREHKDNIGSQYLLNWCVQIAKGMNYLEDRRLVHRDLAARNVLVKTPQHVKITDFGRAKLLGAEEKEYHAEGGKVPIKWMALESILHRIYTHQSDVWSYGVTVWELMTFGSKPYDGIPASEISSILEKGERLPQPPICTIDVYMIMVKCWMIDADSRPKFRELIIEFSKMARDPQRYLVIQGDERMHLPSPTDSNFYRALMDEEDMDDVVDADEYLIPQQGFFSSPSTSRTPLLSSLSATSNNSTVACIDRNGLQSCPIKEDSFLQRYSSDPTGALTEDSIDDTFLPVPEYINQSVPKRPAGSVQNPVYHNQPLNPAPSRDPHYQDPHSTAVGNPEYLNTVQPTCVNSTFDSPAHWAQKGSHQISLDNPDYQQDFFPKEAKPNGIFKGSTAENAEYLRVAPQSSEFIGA
protocol_details: HotSpot radiometric kinase assay, EGFR L858R/T790M/C797S mutant
assay_setup: 10 μM ATP
Kindly supply the reported pIC50 values for the records listed here.
Please express pIC50 as -log10 of the molar concentration.

// fetch pIC50 for `Cc1c2c(nn1[C@H]1C[C@@H](N(C)CCN(C)C)C1)OCCCOc1c(cnn1C)-c1ccc3[nH]nc(c3c1)/C=C/2` ; system: EGFR L858R/T790M/C797S mutant (Homo sapiens (Human), UniProt P00533, C797S/L858R/T790M)
7.88

// fetch pIC50 for `C[C@H]1CN(C)Cc2c(c(O[C@H]3CCN(S(C)(=O)=O)C3)nn2CCO)/C=C/c2n[nH]c3ccc(cc23)-c2cnn(C)c2O1` ; system: EGFR L858R/T790M/C797S mutant (Homo sapiens (Human), UniProt P00533, C797S/L858R/T790M)
8.86

// fetch pIC50 for Cc1nn(CCO)c2c1/C=C/c1n[nH]c3ccc(cc13)-c1cnn(C)c1OC(C1CCC1)CN(C)C2 (centres unmarked) ; system: EGFR L858R/T790M/C797S mutant (Homo sapiens (Human), UniProt P00533, C797S/L858R/T790M)
9.21

// fetch pIC50 for `Cn1ncc2c1OCCN1CC[C@H](C1)Oc1ccccc1/C=C/c1n[nH]c3ccc-2cc13` ; system: EGFR L858R/T790M/C797S mutant (Homo sapiens (Human), UniProt P00533, C797S/L858R/T790M)
7.59

// fetch pIC50 for `Cc1c2c(nn1C)CN(C)CCOc1c(cnn1C)-c1ccc3[nH]nc(c3c1)/C=C/2` ; system: EGFR L858R/T790M/C797S mutant (Homo sapiens (Human), UniProt P00533, C797S/L858R/T790M)
7.57

// fetch pIC50 for `C[C@H]1CN(C)Cc2c(c(OC3CCNCC3)nn2C)/C=C/c2n[nH]c3ccc(cc23)-c2cnn(C)c2O1` ; system: EGFR L858R/T790M/C797S mutant (Homo sapiens (Human), UniProt P00533, C797S/L858R/T790M)
8.81

// fetch pIC50 for `CC(C)Oc1nn(CCO)c2c1/C=C/c1n[nH]c3ccc(cc13)-c1cnn(C)c1O[C@@H](CO)CN(C)C2` ; system: EGFR L858R/T790M/C797S mutant (Homo sapiens (Human), UniProt P00533, C797S/L858R/T790M)
8.66

// fetch pIC50 for `CCN1Cc2c(c(OC(C)C)nn2CC(C)=O)/C=C/c2n[nH]c3ccc(cc23)-c2cnn(C)c2O[C@@H](C)C1` ; system: EGFR L858R/T790M/C797S mutant (Homo sapiens (Human), UniProt P00533, C797S/L858R/T790M)
9.30
